assay.method.text: Distribution coefficient, log D at pH 1.2 by HPLC analysis
Assay type: physicochemical
test.parameters: octanol/water
parameter: logD

1) O=C(O)c1sc2c([N+](=O)[O-])c(O)c(O)cc2c1Cl | 3.64

###

Entries annotated with measured Uncoupling concentration
assay.method.text: Uncoupling activity in Wistar rat mitochondria assessed as increase in oxygen consumption by mitochondrial respiration assay relative to 10 uM dinitrophenol
Type: ADME
parameter: Uncoupling concentration

1) CC(C)OC(=O)c1sc2c([N+](=O)[O-])c(O)c(O)cc2c1Cl | > 1 µM
2) CCCC(=O)OC(C)OC(=O)c1sc2c([N+](=O)[O-])c(O)c(O)cc2c1Cl (stereo not given) | > 50 µM
3) CC(OC(=O)c1sc2c([N+](=O)[O-])c(O)c(O)cc2c1Cl)OC(=O)C(C)C (stereo not given) | > 50 µM
4) CC(C)C(N)C(=O)OCOC(=O)c1sc2c([N+](=O)[O-])c(O)c(O)cc2c1Cl (stereo not given) | 25 µM
5) CC(C)C(=O)OCOC(=O)c1sc2c([N+](=O)[O-])c(O)c(O)cc2c1Cl | > 50 µM

###

assay.method.text: Aqueous solubility in acetate buffer at pH 4.0 by HPLC analysis
Type: physicochemical
test.parameters: acetate buffer, read-out: solubility
Label rule, in plain words: solubility of 0.7 µg/mL and up is 1, under 0.7 µg/mL is 0.

1) CC(C)C(N)C(=O)OCOC(=O)c1sc2c([N+](=O)[O-])c(O)c(O)cc2c1Cl (stereo not drawn) | 1
2) CCCOC(=O)c1sc2c([N+](=O)[O-])c(O)c(O)cc2c1Cl | 0
3) O=C(O)c1sc2c([N+](=O)[O-])c(O)c(O)cc2c1Cl | 1
4) CC(OC(=O)c1sc2c([N+](=O)[O-])c(O)c(O)cc2c1Cl)OC(=O)C(C)C (stereo not drawn) | 0
5) COC(=O)c1sc2c([N+](=O)[O-])c(O)c(O)cc2c1Cl | 1
6) CCCC(=O)OC(C)OC(=O)c1sc2c([N+](=O)[O-])c(O)c(O)cc2c1Cl (stereo not drawn) | 1
7) CC(C)OC(=O)c1sc2c([N+](=O)[O-])c(O)c(O)cc2c1Cl | 0

###

Entries and their pKi values follow.
study.target: Catechol O-methyltransferase (Homo sapiens)
Sequence (P21964 whole entry): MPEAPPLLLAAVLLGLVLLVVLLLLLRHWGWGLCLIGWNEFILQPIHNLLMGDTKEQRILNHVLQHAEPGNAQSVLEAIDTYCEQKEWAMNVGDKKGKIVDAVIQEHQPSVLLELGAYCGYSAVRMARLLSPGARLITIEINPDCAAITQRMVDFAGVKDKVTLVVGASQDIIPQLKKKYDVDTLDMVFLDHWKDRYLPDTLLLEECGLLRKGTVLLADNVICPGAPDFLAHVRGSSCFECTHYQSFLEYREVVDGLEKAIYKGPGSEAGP
assay.method.text: Inhibition of human recombinant COMT by microplate screening assay
pKi: −log10 of the molar value.
parameter: pKi

1. CC(OC(=O)c1sc2c([N+](=O)[O-])c(O)c(O)cc2c1Cl)OC(=O)C(C)C (stereo unspecified) | 7.77
2. CC(C)C(=O)OCOC(=O)c1sc2c([N+](=O)[O-])c(O)c(O)cc2c1Cl | 7.77
3. CCCOC(=O)c1sc2c([N+](=O)[O-])c(O)c(O)cc2c1Cl | 8.04
4. CCCC(=O)OC(C)OC(=O)c1sc2c([N+](=O)[O-])c(O)c(O)cc2c1Cl (stereo unspecified) | 7.78
5. CCCC(=O)OCOC(=O)c1sc2c([N+](=O)[O-])c(O)c(O)cc2c1Cl | 7.97
6. O=C(OCc1ccccc1)c1sc2c([N+](=O)[O-])c(O)c(O)cc2c1Cl | 7.99
7. CCCCOC(=O)c1sc2c([N+](=O)[O-])c(O)c(O)cc2c1Cl | 8.89
8. O=C(OCc1coc(=O)o1)c1sc2c([N+](=O)[O-])c(O)c(O)cc2c1Cl | 8.80
9. COC(=O)c1sc2c([N+](=O)[O-])c(O)c(O)cc2c1Cl | 8.66
10. CC(C)OC(=O)c1sc2c([N+](=O)[O-])c(O)c(O)cc2c1Cl | 8.96
11. CC(C)C(N)C(=O)OCOC(=O)c1sc2c([N+](=O)[O-])c(O)c(O)cc2c1Cl (stereo unspecified) | 8.22

###

assay.method.text: Distribution coefficient, log D at pH 4.0 by HPLC analysis
Type: physicochemical
test.parameters: octanol/water
parameter: logD

1. O=C(O)c1sc2c([N+](=O)[O-])c(O)c(O)cc2c1Cl | 1.8

###

assay.method.text: Aqueous solubility in HCl buffer at pH 1.2 by HPLC analysis
Type: physicochemical
test.parameters: HCl buffer, read-out: solubility
Attribute: solubility
parameter: solubility (µg/mL)

1) CC(C)C(N)C(=O)OCOC(=O)c1sc2c([N+](=O)[O-])c(O)c(O)cc2c1Cl (centres undefined) | 6600
2) CCCC(=O)OC(C)OC(=O)c1sc2c([N+](=O)[O-])c(O)c(O)cc2c1Cl (centres undefined) | 0.5
3) COC(=O)c1sc2c([N+](=O)[O-])c(O)c(O)cc2c1Cl | 0.7
4) O=C(O)c1sc2c([N+](=O)[O-])c(O)c(O)cc2c1Cl | 3.9

###

assay.method.text: Half life in human serum by HPLC analysis
Format: ADME, cell-free
parameter: log10 half-life (log10 of the value in h)

1. CC(C)C(=O)OCOC(=O)c1sc2c([N+](=O)[O-])c(O)c(O)cc2c1Cl | 0.71
2. CCCC(=O)OCOC(=O)c1sc2c([N+](=O)[O-])c(O)c(O)cc2c1Cl | 0.72
3. CC(OC(=O)c1sc2c([N+](=O)[O-])c(O)c(O)cc2c1Cl)OC(=O)C(C)C (stereo unspecified) | 1.51
4. O=C(OCc1coc(=O)o1)c1sc2c([N+](=O)[O-])c(O)c(O)cc2c1Cl | -1.52
5. CC(C)C(N)C(=O)OCOC(=O)c1sc2c([N+](=O)[O-])c(O)c(O)cc2c1Cl (stereo unspecified) | -1.22
6. CCCC(=O)OC(C)OC(=O)c1sc2c([N+](=O)[O-])c(O)c(O)cc2c1Cl (stereo unspecified) | 1.40

###

half-life for assorted compounds
assay.method.text: Chemical stability in acetate buffer assessed as hydrolysis half life at pH 4.0 by HPLC analysis
Format: physicochemical
parameter: half-life

1) CCCOC(=O)c1sc2c([N+](=O)[O-])c(O)c(O)cc2c1Cl | 744 h
2) CC(C)C(=O)OCOC(=O)c1sc2c([N+](=O)[O-])c(O)c(O)cc2c1Cl | 202 h
3) CC(C)C(N)C(=O)OCOC(=O)c1sc2c([N+](=O)[O-])c(O)c(O)cc2c1Cl (stereo not given) | 40.8 h
4) CC(C)OC(=O)c1sc2c([N+](=O)[O-])c(O)c(O)cc2c1Cl | 552 h
5) O=C(OCc1coc(=O)o1)c1sc2c([N+](=O)[O-])c(O)c(O)cc2c1Cl | 93.6 h

###

assay.method.text: Half life in rat liver homogenate by HPLC analysis
Type: ADME, tissue-based
Quick rule: half-life of at least 40 min means y, below that means n.

1. CCCC(=O)OCOC(=O)c1sc2c([N+](=O)[O-])c(O)c(O)cc2c1Cl | n
2. O=C(OCc1ccccc1)c1sc2c([N+](=O)[O-])c(O)c(O)cc2c1Cl | y
3. CC(C)C(N)C(=O)OCOC(=O)c1sc2c([N+](=O)[O-])c(O)c(O)cc2c1Cl (stereo unspecified) | n
4. COC(=O)c1sc2c([N+](=O)[O-])c(O)c(O)cc2c1Cl | n
5. CCCOC(=O)c1sc2c([N+](=O)[O-])c(O)c(O)cc2c1Cl | n
6. CC(C)C(=O)OCOC(=O)c1sc2c([N+](=O)[O-])c(O)c(O)cc2c1Cl | n
7. CC(C)OC(=O)c1sc2c([N+](=O)[O-])c(O)c(O)cc2c1Cl | y
8. CC(OC(=O)c1sc2c([N+](=O)[O-])c(O)c(O)cc2c1Cl)OC(=O)C(C)C (stereo unspecified) | n
9. CCCC(=O)OC(C)OC(=O)c1sc2c([N+](=O)[O-])c(O)c(O)cc2c1Cl (stereo unspecified) | n
10. CCCCOC(=O)c1sc2c([N+](=O)[O-])c(O)c(O)cc2c1Cl | y
11. O=C(OCc1coc(=O)o1)c1sc2c([N+](=O)[O-])c(O)c(O)cc2c1Cl | n

###

Tested on: Rattus norvegicus
assay.method.text: AUC in Wistar rat at 10 umol/kg, po up to 6 hrs by LC/MS/MS relative to 3-Chloro-5,6-dihydroxy-7-nitro-benzo[b]thiophene-2-carboxylic acid
Type: ADME, organism-based, Plasma
test.parameters: in vivo
parameter: fold change (FC)

1) O=C(OCc1coc(=O)o1)c1sc2c([N+](=O)[O-])c(O)c(O)cc2c1Cl | 2.1
2) CC(OC(=O)c1sc2c([N+](=O)[O-])c(O)c(O)cc2c1Cl)OC(=O)C(C)C (centres undefined) | 0.5
3) CC(C)C(N)C(=O)OCOC(=O)c1sc2c([N+](=O)[O-])c(O)c(O)cc2c1Cl (centres undefined) | 0.4
4) CC(C)C(=O)OCOC(=O)c1sc2c([N+](=O)[O-])c(O)c(O)cc2c1Cl | 2
